# TARGET_OF_ASSAY: myosin light chain kinase (MLCK) (Gallus gallus)
# Construct: chicken gizzard MLCK prepared as described; from tissue; host or cells: chicken gizzard
# Sequence (P11799 935-1906): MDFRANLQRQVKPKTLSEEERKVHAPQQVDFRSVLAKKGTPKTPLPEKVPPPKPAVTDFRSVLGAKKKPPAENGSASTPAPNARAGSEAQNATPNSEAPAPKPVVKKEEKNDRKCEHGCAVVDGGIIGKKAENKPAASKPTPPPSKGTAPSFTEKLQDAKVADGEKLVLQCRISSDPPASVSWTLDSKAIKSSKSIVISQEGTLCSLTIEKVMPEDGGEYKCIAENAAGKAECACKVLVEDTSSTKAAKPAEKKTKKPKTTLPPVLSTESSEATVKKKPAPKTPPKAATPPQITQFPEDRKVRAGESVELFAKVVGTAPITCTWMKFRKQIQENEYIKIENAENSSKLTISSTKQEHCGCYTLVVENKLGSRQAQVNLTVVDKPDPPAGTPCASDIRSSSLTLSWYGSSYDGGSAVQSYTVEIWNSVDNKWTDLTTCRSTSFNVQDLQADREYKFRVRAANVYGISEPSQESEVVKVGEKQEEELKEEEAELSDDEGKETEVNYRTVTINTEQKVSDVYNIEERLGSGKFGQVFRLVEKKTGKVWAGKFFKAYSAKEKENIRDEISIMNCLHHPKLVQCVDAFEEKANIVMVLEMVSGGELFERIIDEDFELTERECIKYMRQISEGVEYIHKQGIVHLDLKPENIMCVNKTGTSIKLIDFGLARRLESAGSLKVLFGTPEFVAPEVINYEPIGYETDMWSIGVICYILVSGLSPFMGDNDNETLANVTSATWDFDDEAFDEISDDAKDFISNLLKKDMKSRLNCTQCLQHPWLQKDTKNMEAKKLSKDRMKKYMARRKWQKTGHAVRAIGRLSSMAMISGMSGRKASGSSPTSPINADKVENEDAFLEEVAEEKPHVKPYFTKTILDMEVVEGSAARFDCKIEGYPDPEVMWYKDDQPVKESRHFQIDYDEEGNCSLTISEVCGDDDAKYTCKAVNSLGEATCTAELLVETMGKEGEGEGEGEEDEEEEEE
# MEASUREMENT_NOTES: Reconstituted enzyme assay, MLCK
# Type: biochemical, chicken
# EXPERIMENTAL_CONDITIONS: γ-[32P]-ATP, synthetic peptide substrate; mean ± SEM; read-out: IC50 MLCK
MEASUREMENT_NAME: IC50 (µM)
The response must be a number in µM with no trailing unit.

Query string: What does the data say about its IC50? Entry: COc1ccc(S(=O)(=O)N(CCO)c2ccccc2CN(C)C/C=C/c2ccc(Cl)cc2)cc1 [Compound 5, KN93, reference compound]
Result string: 9.8
